Test: CCTE_Shafer_MEA_acute_per_burst_spike_number_mean: CCTE's Neural Acute Assay for Average Number of Spikes Per Burst, Shafer Lab (AID 2284015);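 further: hits are decreases in mean spikes per burst versus baseline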
Experimental: CCTE_Shafer_MEA_acute assay is conducted using Axion Biosystems 48 well microelectrode array (MEA) plates and Maestro recording system. Each well of the MEA plate contains a grid of 16 microelectrodes embedded in the culture surface. Electrically active cells, such as neurons, can be cultured over the electrodes, and electrical activity in these cells can be recorded extracellularly. […]
Activity calls are given as the source filed them. How the source made its calls: active means hit-call score of the fitted dose curve at least 0.9, where 1 is the maximum; inactive means score below 0.9.
Select the matching outcome among yes (1) for active, no (0) for inactive

>>> group_label("Cc1c2ccccc2c(C)c2c1ccc1ccccc12")
"no (0)"
>>> group_label("COc1cccc([C@H](O)C2CCN(CCc3ccc(F)cc3)CC2)c1OC")
"no (0)"
>>> group_label("CC[C@@H]1C[C@H](N(Cc2cc(C(F)(F)F)cc(C(F)(F)F)c2)C(C)=O)c2cc(C(F)(F)F)ccc2N1C(=O)OC(C)C")
"no (0)"
>>> group_label("CN1C(=O)CC[C@H]1c1cccnc1")
"no (0)"
>>> group_label("NC(=O)c1nc(-c2cccc(-c3cc(F)ccc3OCC(F)(F)C(F)(F)F)c2)n[nH]1")
"yes (1)"
>>> group_label("O=c1[nH]sc2ccccc12")
"no (0)"
>>> group_label("CC(=O)N1CCN(c2ccc(OC[C@H]3CO[C@](Cn4ccnc4)(c4ccc(Cl)cc4Cl)O3)cc2)CC1")
"no (0)"
>>> group_label("CN(C[C@@H](CC[N+]12CCC(C3CCCCC3)(CC1)CC2)c1ccc(Cl)c(Cl)c1)C(=O)c1cc(C(F)(F)F)cc(C(F)(F)F)c1")
"yes (1)"

Let's switch to this compound now.
Recorded test call requested for CCCCOC(=O)c1ccc(O)cc1
no (0)

---

Assay: BSK_hDFCGF_Proliferation: Cell Proliferation Assessment in the BioMAP Diversity Plus: hDFCGF Assay (AID 2283059);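 further: curves fitted for both rise and fall of signal versus DMSO baseline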
Conditions: primary human foreskin fibroblasts
Procedure: BSK_hDFCGF is a cell-based, multiplexed-readout assay that uses foreskin fibroblast, a human skin primary cell, with measurements taken at 24 hours after chemical dosing in a 96-well plate.BSK_hDFCGF_Proliferation is an assay component measured in the BSK_hDFCGF assay. It measures […] related to cell proliferation using Sulforhodamine staining technology.Data from the assay component BSK_hDFCGF_Proliferation was analyzed into 1 assay endpoint. […]
Activity calls are given as the source filed them. How the source made its calls: active means hit-call score of the fitted dose curve at least 0.9, where 1 is the maximum; inactive means score below 0.9.
Select the matching outcome among 1 (yes) = active, 0 (no) = inactive

>>> group_label("OCCO")
"1 (yes)"
>>> group_label("Cc1cn([C@H]2C[C@H](N=[N+]=[N-])[C@@H](CO)O2)c(=O)[nH]c1=O")
"0 (no)"
>>> group_label("O=C1c2ccccc2C(=O)N1CCc1noc(-c2ccc(CN3CCCCCC3)s2)n1")
"0 (no)"
>>> group_label("Cc1oc2c(NC(=O)c3c(Cl)cccc3Cl)cccc2c1C(C)(C)O")
"1 (yes)"
>>> group_label("NCc1cccc(C2CCN(C(=O)c3ccc(C#Cc4ccccc4F)o3)CC2)c1")
"1 (yes)"

Let's switch to this compound now.
Recorded test call requested for CN(C)c1ccc(C(=C2C=CC(=[N+](C)C)C=C2)c2ccc(N(C)C)cc2)cc1
1 (yes)

---

read-out: Low-density lipoprotein receptor (LDLR), LDLR (gene 3949); experiment: BSK_CASM3C_LDLR: BioMAP Diversity Plus: CASM3C Assay for Low-density lipoprotein receptor (LDLR) Biomarker Activity (AID 2283045); conditions: primary human coronary artery smooth muscle cells; actives raise or lower the signal;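 further: LDLR protein level on the cell surface quantified by ELISA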
Calls of active or inactive are those of the source. How the source made its calls: active means hit-call score of the fitted dose curve at least 0.9, where 1 is the maximum; inactive means score below 0.9.
readout_name: AC50

For orientation, consider the following solved cases.
>>> reported_result("CCCCCCCCN(C)CCCCCCCC")
"inactive"
>>> reported_result("CCCCCCCCOC(=O)c1cc(O)c(O)c(O)c1")
"29.2 µM (active)"
>>> reported_result("CN(C)c1ccc(C(=C2C=CC(=[N+](C)C)C=C2)c2ccc(N(C)C)cc2)cc1")
"5.4 µM (active)"
>>> reported_result("CCCCCCCCCC(=O)O")
"inactive"

If you can, please state the reported AC50 value of CN1C(=O)N(c2ccccc2Br)Cc2cnc(Nc3ccc4c(c3)OCC(CO)O4)nc21 (stereo unspecified) .
37.8 µM (active)

If you can, please state the reported AC50 value of c1ccc2ccccc2c1 .
inactive

If you can, please state the reported AC50 value of O=c1[nH]sc2ccccc12 .
12.7 µM (active)

---

read-out: Pyruvate Dehydrogenase Kinase 4 (PDK4), PDK4 (gene 5166); test: LTEA_HepaRG_PDK4: Life Technologies and Expression Analysis (LTEA) Assay for Pyruvate Dehydrogenase Kinase 4 (PDK4) using HepaRG (AID 2283525); details: mRNA level, 48 h; actives raise or lower the signal
Activity calls are given as the source filed them. The calls were made as follows: active = hit-call score of the fitted dose curve at least 0.9, where 1 is the maximum; inactive = score below 0.9.
Select the matching outcome among label 1 = active, label 0 = inactive

Field: example entries. Status: answers known.
>>> group_label("O=C1O[C@H]([C@@H](O)CO)C(O)=C1O")
"label 0"
>>> group_label("CCCOC(=O)c1cc(O)c(O)c(O)c1")
"label 1"
>>> group_label("Oc1ccc2ccccc2c1")
"label 0"
>>> group_label("CCCC(=O)OCCC(C)C")
"label 0"

Recorded test call requested for Oc1ccccc1
label 0

Recorded test call requested for CCCCCCCCCCCCO
label 0

Recorded test call requested for Cc1cccc2ccccc12
label 0

Recorded test call requested for Cc1oc2c(NC(=O)c3c(Cl)cccc3Cl)cccc2c1C(C)(C)O
label 1

Recorded test call requested for O=C1CCC(C2CCCCC2)CC1
label 0

Recorded test call requested for CN(C)c1ccc(C(=C2C=CC(=[N+](C)C)C=C2)c2ccc(N(C)C)cc2)cc1
label 1

---

assay: APR_HepG2_MitoMass_24hr: Apredica 24-hour HepG2 Assay for Mitochondrial Mass (AID 2282912); settings: high-content imaging, actives raise or lower the signal
The source made the active and inactive calls. Rule for the calls: active = hit-call score of the fitted dose curve at least 0.9, where 1 is the maximum; inactive = score below 0.9.
Select the matching outcome among active, inactive

Field: example entries. Status: answers known.
>>> group_label("CN1C(=O)N(c2ccccc2Br)Cc2cnc(Nc3ccc4c(c3)OCC(CO)O4)nc21 (configuration not stated)")
"inactive"
>>> group_label("Oc1ccccc1")
"inactive"
>>> group_label("CCN(Cc1cccc(S(=O)(=O)O)c1)c1ccc(C(=C2C=CC(=[N+](CC)Cc3cccc(S(=O)(=O)O)c3)C=C2)c2ccccc2S(=O)(=O)[O-])cc1")
"inactive"
>>> group_label("Clc1ccccc1C(c1ccccc1)(c1ccccc1)n1ccnc1")
"inactive"
>>> group_label("CC[C@@H]1C[C@H](N(Cc2cc(C(F)(F)F)cc(C(F)(F)F)c2)C(C)=O)c2cc(C(F)(F)F)ccc2N1C(=O)OC(C)C")
"inactive"

Recorded test call requested for c1ccc(C[n+]2cccc3ccccc32)cc1
active

---

read-out: Interleukin-8 (IL8), CXCL8 (gene 3576); assay: BSK_SAg_IL8: BioMAP Diversity Plus: SAg Assay for Interleukin-8 (IL8) Biomarker Activity (AID 2283094); settings: primary human HUVEC with PBMC; actives raise or lower the signal
Calls of active or inactive are those of the source. Rule for the calls: active = hit-call score of the fitted dose curve at least 0.9, where 1 is the maximum; inactive = score below 0.9.
Select the matching outcome among active, inactive

Field: example entries. Status: answers known.
>>> group_label("c1ccc2n[nH]nc2c1")
"inactive"
>>> group_label("CCCCCCCCCCCO")
"inactive"
>>> group_label("O=C(O)Cn1c(=O)n(Cc2ccc(Br)cc2F)c(=O)c2ccc(Cl)cc21")
"inactive"

Recorded test call requested for CC(C)(O)c1ccc(CNC(=O)c2cccnc2Oc2ccc3nonc3c2)cc1
inactive

Recorded test call requested for CCN(CC)C(=O)c1cc(S(=O)(=O)Cc2ccccc2)c(N2CCC(c3ccccc3)CC2)cc1N(CC)CCN(C)C
active

Recorded test call requested for O=C1CCC(C2CCCCC2)CC1
inactive

Recorded test call requested for CCCCCCCCCC(=O)O
inactive

---

assay: ATG_MRE_CIS: Attagene CIS-FACTORIAL HepG2 Assay for human Metal Responsive Element (MRE) (AID 2282954); settings: HepG2 MRE cis-reporter transcription, Attagene multiplex; actives raise or lower the signal
Active and inactive are the calls of the source. How the source made its calls: active means hit-call score of the fitted dose curve at least 0.9, where 1 is the maximum; inactive means score below 0.9.
Select the matching outcome among active, inactive

Field: example entries. Status: answers known.
>>> group_label("O=C(O)Cc1cc(I)c(Oc2ccc(O)c(I)c2)c(I)c1")
"active"
>>> group_label("CCCCCCCCOC(=O)c1cc(O)c(O)c(O)c1")
"inactive"

Recorded test call requested for CCCOC(=O)c1cc(O)c(O)c(O)c1
inactive

Recorded test call requested for Cc1occc1C(=O)Nc1ccc(C(=O)N2CCC(F)(F)/C(=C\C(=O)N3CCC(N4CCCCC4)CC3)c3ccccc32)cc1
active

Recorded test call requested for COCC(C)OCC(C)OCC(C)O (configuration not stated)
inactive

Recorded test call requested for O=C1c2ccccc2C(=O)N1CCc1noc(-c2ccc(CN3CCCCCC3)s2)n1
active

Recorded test call requested for Cc1oc2c(NC(=O)c3c(Cl)cccc3Cl)cccc2c1C(C)(C)O
active

Recorded test call requested for CCCCCCCCOc1ccc(C(=O)c2ccccc2)c(O)c1
inactive

Recorded test call requested for CCCCCCCCN(C)CCCCCCCC
inactive

Recorded test call requested for CC[C@H](NC(=O)c1cc(F)ccc1NS(=O)(=O)c1cccc2cccnc12)c1ccccc1
inactive

Recorded test call requested for CCCC(=O)OCCC(C)C
inactive

Recorded test call requested for CCCCCCCCCCCCO
inactive
